# System Tested: Glucose-6-phosphate 1-dehydrogenase (Homo sapiens)
# Sequence (P11413 whole entry): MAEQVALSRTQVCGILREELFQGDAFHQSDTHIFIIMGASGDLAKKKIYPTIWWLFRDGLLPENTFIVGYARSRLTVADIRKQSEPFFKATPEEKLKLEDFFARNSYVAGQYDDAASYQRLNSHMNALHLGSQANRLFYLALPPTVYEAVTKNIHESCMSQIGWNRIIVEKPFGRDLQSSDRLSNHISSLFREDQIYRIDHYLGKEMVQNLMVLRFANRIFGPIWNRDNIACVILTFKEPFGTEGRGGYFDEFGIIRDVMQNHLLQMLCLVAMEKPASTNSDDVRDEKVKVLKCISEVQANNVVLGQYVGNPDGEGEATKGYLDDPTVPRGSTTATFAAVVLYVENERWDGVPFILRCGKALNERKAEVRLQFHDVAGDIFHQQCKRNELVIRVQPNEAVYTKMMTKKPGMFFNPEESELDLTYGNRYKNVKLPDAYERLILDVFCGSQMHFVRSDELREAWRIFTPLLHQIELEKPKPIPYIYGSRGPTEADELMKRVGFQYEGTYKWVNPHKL
# Test Description: inhibition of Homo sapiens G6PD, dose series – biochemical, fluorescence, selectivity assay for P. falciparum G6PD inhibitor project, dose response (AID 504792)
# Format: functional
Active and inactive are the calls of the source.
Your reply should match one of these outcome classes. active, inactive

Field: example entries. Status: answers known.
>  <Compound>
Oc1cc2c(cc1O)C1c3ccc(O)c(O)c3OCC1(O)C2 (stereo not given) [HAEMATOXYLIN]

>  <Group>
inactive

$$$$
>  <Compound>
Cc1ccc(SC2=C(Sc3ccc(C)cc3)C(=O)c3ccccc3C2=O)cc1

>  <Group>
inactive

$$$$
>  <Compound>
Cc1cc(O)c(-c2cc(O)c(C)cc2O)cc1O

>  <Group>
active

$$$$
>  <Compound>
CC1=CC(=NOC(=O)/C=C/c2ccccc2)C=C(C)C1=O

>  <Group>
inactive

$$$$

Now for another entry.
[ask] Could you kindly confirm the outcome this assay logged for "O=C(Cn1sc2ccccc2c1=O)NC12CC3CC(CC(C3)C1)C2" ?
[reply] active

* * *

# System Tested: CAAX prenyl protease 2 (Saccharomyces cerevisiae S288c)
# Sequence (Q03530 whole entry): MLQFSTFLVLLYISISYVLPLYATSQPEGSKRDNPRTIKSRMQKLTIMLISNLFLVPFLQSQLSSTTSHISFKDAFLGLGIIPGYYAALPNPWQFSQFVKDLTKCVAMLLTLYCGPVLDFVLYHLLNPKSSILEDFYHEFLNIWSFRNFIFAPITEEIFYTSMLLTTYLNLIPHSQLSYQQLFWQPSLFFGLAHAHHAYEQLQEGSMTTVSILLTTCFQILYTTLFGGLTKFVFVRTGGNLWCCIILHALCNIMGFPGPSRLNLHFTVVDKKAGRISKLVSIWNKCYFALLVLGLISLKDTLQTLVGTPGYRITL
# Format: biochemical
Active and inactive are the calls of the source.
// reported AC50 per item

Record excerpt, results attached:
>  <Compound>
NCCCn1c(C(=O)c2cc(Cl)c(N)c(Cl)c2)c2ccc(C(F)(F)F)cc2[n+]1[O-]

>  <Observed Measurement>
35.5 µM (active)

$$$$
>  <Compound>
Cc1ccc(-c2csc(N3CCN(c4cc5c(cc4Cl)nc(-c4ccncc4)n5CCOCCO)CC3)n2)cc1

>  <Observed Measurement>
6.2 µM (active)

$$$$
>  <Compound>
Cc1oc2c(CN3CCOCC3)c(O)ccc2c(=O)c1-c1ccccc1

>  <Observed Measurement>
11 µM (active)

$$$$

Please turn your attention to the following entry.
[ask] # get_value(readout='AC50', item= [H]/N=C(\N/C(=N/[H])NCCCCCCNC(=N)NC(=N)Nc1ccc(Cl)cc1)Nc1ccc(Cl)cc1 [CHLORHEXIDINE] )
[reply] 5.69 µM (active)

* * *

# System Tested: Streptokinase A (Streptococcus pyogenes serotype M1, UniProt P10520)
# Sequence (P10520 whole entry): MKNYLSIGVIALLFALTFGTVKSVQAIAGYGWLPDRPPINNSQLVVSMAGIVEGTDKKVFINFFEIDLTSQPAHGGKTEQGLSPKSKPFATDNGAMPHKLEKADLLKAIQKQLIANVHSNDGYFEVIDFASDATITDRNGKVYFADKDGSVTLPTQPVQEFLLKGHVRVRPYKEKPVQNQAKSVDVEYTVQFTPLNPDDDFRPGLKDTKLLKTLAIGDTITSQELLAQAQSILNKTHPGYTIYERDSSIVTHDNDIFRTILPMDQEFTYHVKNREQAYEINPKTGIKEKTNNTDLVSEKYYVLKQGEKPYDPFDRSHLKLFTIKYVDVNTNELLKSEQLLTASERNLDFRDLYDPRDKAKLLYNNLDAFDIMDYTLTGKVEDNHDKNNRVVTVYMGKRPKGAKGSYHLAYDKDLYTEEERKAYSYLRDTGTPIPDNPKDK
# Test Description: viability-normalized secreted streptokinase activity reduction – plasminogen activation absorbance, OD405, dose response (AID 1914);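 also: secreted streptokinase activity via plasminogen activation per viability signal from cell pellet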
# Assay type: functional, Streptococcus pyogenes M1 GAS
Assay Metric: EC50

Examples with their reported EC50 follow.
>  <Compound Structure String>
Nc1nc(-c2ccccc2)c(N=Nc2cccc3ccccc23)s1

>  <Assay Metric>
EC50

>  <Observed Measurement>
> 150 µM (not active)

$$$$
>  <Compound Structure String>
O=C(NNc1nc(-c2ccc(F)cc2)cs1)c1ccccc1

>  <Assay Metric>
EC50

>  <Observed Measurement>
> 150 µM (not active)

$$$$

Let us examine a further case.
[ask] Kindly state the measured EC50 obtained for "O=C(CCCSc1ccccc1)Nc1nc(-c2ccccn2)cs1" with Streptokinase A (Streptococcus pyogenes serotype M1, UniProt P10520).
[reply] > 150 µM (not active)

* * *

# System Tested: Corticotropin-releasing factor receptor 2/Corticotropin-releasing factor-binding protein (Homo sapiens, UniProt P24387+Q13324)
# Sequence (Q13324 whole entry): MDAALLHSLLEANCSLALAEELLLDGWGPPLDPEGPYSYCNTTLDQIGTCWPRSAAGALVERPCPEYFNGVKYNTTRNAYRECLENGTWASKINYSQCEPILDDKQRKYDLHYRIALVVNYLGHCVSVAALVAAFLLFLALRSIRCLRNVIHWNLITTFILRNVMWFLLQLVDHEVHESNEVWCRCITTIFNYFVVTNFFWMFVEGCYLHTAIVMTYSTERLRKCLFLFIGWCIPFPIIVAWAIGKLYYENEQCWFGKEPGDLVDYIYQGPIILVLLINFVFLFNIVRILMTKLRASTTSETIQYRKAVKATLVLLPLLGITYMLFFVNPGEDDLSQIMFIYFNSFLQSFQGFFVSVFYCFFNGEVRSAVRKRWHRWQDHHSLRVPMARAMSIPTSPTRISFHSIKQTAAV
# Sequence (P24387 whole entry): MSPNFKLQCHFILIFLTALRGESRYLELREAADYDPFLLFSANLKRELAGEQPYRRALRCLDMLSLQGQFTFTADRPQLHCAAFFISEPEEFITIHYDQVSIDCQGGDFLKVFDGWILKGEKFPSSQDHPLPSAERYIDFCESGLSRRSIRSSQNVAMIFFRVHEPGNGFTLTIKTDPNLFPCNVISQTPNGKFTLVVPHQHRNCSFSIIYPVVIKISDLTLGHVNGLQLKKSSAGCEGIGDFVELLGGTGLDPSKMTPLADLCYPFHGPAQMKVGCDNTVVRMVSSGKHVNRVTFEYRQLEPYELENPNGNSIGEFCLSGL
# Test Description: activators of CRF receptor 2 with binding protein – uHTS hits, confirmation (AID 602473)
# Type: functional
# Experimental Conditions: read-out: EC50_Mean
The source made the active and inactive calls.
Pick one: active, inactive

>  <Compound>
CCCCCC(=O)N1CC2(CC(c3cccc(NC(=O)CC)c3)=NO2)C[C@H]1C(N)=O (stereo not given in full)

>  <Group>
inactive

$$$$
>  <Compound>
COc1ccccc1N(CC(=O)N1CCCCC1)S(=O)(=O)c1ccccc1

>  <Group>
active

$$$$
>  <Compound>
Cc1ccccc1Cn1cccc1/C=C1/C(=N)N2C=CSC2=NC1=O

>  <Group>
inactive

$$$$
>  <Compound>
CC1CCc2[nH]c3ccc(C(=O)N(C)CC(=O)Nc4cccc(F)c4)cc3c2C1 (stereo not given)

>  <Group>
inactive

$$$$

Now examine the next entry.
[ask] Fill in: this test's call for "CCCCC(=O)NC(=S)NNC(=O)CCc1ccccc1" is ___
[reply] active
